Tested on: 3E (embryonal-type hepatoblastoma organoid)
Assay: area under the viability dose-response curve (AUC) (AUC (arbitrary units, max 500 = no viability loss)); higher = less sensitive (higher viability)
Conditions: exposure time: 120 h; concentration range: 0.1 nM - 10 µM, 6 doses
ASSAY_METRIC: area under the viability dose-response curve

{"COMPOUND": "O=C(Nc1ccc(Cl)c(C(F)(F)F)c1)NC1CCC(Oc2ccc(C(F)(F)F)cn2)CC1 (configuration not stated)", "TESTED_ON": "3E", "RESULT_VALUE": 371}
{"COMPOUND": "CC1(C)CCC2(CC1)N[C@@H](C(=O)N[C@@H]1CC[C@@H](C(N)=O)OC1)[C@H](c1ccnc(Cl)c1F)[C@]21C(=O)Nc2cc(Cl)ccc21", "TESTED_ON": "3E", "RESULT_VALUE": 313}
{"COMPOUND": "CN[C@@H](C)C(=O)N[C@H]1CN(C(=O)CC(C)C)CC[C@H]2CC[C@@H](C(=O)NC(c3ccccc3)c3ccccc3)N2C1=O", "TESTED_ON": "3E", "RESULT_VALUE": 351}
{"COMPOUND": "Cc1cc(Nc2ncc(Cl)c(Nc3ccccc3S(=O)(=O)C(C)C)n2)c(OC(C)C)cc1C1CCNCC1", "TESTED_ON": "3E", "RESULT_VALUE": 351}
{"COMPOUND": "Cc1c(Cn2c(C)nc3c(C(=O)O)cc(N4CCOCC4)cc32)cccc1C(F)(F)F", "TESTED_ON": "3E", "RESULT_VALUE": 499}
{"COMPOUND": "CC1(C)CCC(c2ccc(Cl)cc2)=C(CN2CCN(c3ccc(C(=O)NS(=O)(=O)c4ccc(N[C@H](CCN5CCOCC5)CSc5ccccc5)c(S(=O)(=O)C(F)(F)F)c4)cc3)CC2)C1", "TESTED_ON": "3E", "RESULT_VALUE": 326}
{"COMPOUND": "COc1cc([C@@H]2c3cc4c(cc3[C@@H](O[C@@H]3O[C@@H]5CO[C@@H](C)O[C@H]5[C@H](O)[C@H]3O)[C@H]3COC(=O)[C@H]23)OCO4)cc(OC)c1O [Etoposide]", "TESTED_ON": "3E", "RESULT_VALUE": 378}

* * *

System: 3E
Assay: area under the viability dose-response curve (AUC) (AUC (arbitrary units, max 500 = no viability loss)); higher = less sensitive (higher viability)
Settings: exposure time: 120 h; concentration range: 0.1 nM - 10 µM, 6 doses
Entries and their area under the viability dose-response curve values follow.
ASSAY_METRIC: area under the viability dose-response curve

{"SMILES_STRING": "CC(=O)Nc1cccc(-n2c(=O)n(C3CC3)c(=O)c3c(Nc4ccc(I)cc4F)n(C)c(=O)c(C)c32)c1", "RESULT_VALUE": 331}
{"SMILES_STRING": "Cc1cc(C)cc(C(=O)NOCCCCCC(=O)NO)c1", "RESULT_VALUE": 407}
{"SMILES_STRING": "CO[C@@H](C)Cn1c(=O)n(C)c2cnc3ccc(-c4cncc(C(C)(C)O)c4)cc3c21", "RESULT_VALUE": 306}
{"SMILES_STRING": "Cc1[nH]c2ccccc2c1CCNCc1ccc(/C=C/C(=O)NO)cc1", "RESULT_VALUE": 210}

* * *

System: 3E
Test: area under the viability dose-response curve (AUC) (AUC (arbitrary units, max 500 = no viability loss)); higher = less sensitive (higher viability)
Details: exposure time: 120 h; concentration range: 0.1 nM - 10 µM, 6 doses
Exam item: assign Fulfilled to entries whose area under the viability dose-response curve is below 400 and Not fulfilled to entries at or above 400. Note that a value of exactly 400 receives Not fulfilled.

{"MOLECULE": "CC(C)NC[C@@H](C(=O)N1CCN(c2ncnc3c2[C@H](C)C[C@H]3O)CC1)c1ccc(Cl)cc1", "TESTED_ON": "3E", "ANSWER_LABEL": "Not fulfilled"}
{"MOLECULE": "O=NN(CCCl)C(=O)NC1CCCCC1", "TESTED_ON": "3E", "ANSWER_LABEL": "Not fulfilled"}
{"MOLECULE": "Nc1ccccc1NC(=O)c1ccc(CNC(=O)OCc2cccnc2)cc1", "TESTED_ON": "3E", "ANSWER_LABEL": "Fulfilled"}
{"MOLECULE": "CC1=C(/C=C/C(C)=C/C=C/C(C)=C/C(=O)Nc2ccc(O)cc2)C(C)(C)CCC1 [Fenretinide]", "TESTED_ON": "3E", "ANSWER_LABEL": "Fulfilled"}
{"MOLECULE": "CCN1CCN(Cc2ccc(Nc3ncc(F)c(-c4cc(F)c5nc(C)n(C(C)C)c5c4)n3)nc2)CC1", "TESTED_ON": "3E", "ANSWER_LABEL": "Fulfilled"}
{"MOLECULE": "COc1cc2nccc(Oc3ccc(NC(=O)NC4CC4)c(Cl)c3)c2cc1C(N)=O", "TESTED_ON": "3E", "ANSWER_LABEL": "Not fulfilled"}
{"MOLECULE": "Nc1cc(C(F)(F)F)c(-c2cc(N3CCOCC3)nc(N3CCOCC3)n2)cn1", "TESTED_ON": "3E", "ANSWER_LABEL": "Fulfilled"}
{"MOLECULE": "CC(C)(O)CNc1nc(Nc2ccnc(C(F)(F)F)c2)nc(-c2cccc(C(F)(F)F)n2)n1", "TESTED_ON": "3E", "ANSWER_LABEL": "Not fulfilled"}
{"MOLECULE": "Cc1nc(-c2cn3c(n2)-c2ccc(-c4cnn(C(C)(C)C(N)=O)c4)cc2OCC3)n(C(C)C)n1", "TESTED_ON": "3E", "ANSWER_LABEL": "Fulfilled"}
{"MOLECULE": "COc1cc2/c(=N/c3ccc(Br)cc3F)nc[nH]c2cc1OCC1CCN(C)CC1", "TESTED_ON": "3E", "ANSWER_LABEL": "Not fulfilled"}
{"MOLECULE": "O=C(c1ccc(F)c(F)c1Nc1ccc(I)cc1F)N1CC(O)([C@@H]2CCCCN2)C1", "TESTED_ON": "3E", "ANSWER_LABEL": "Fulfilled"}
{"MOLECULE": "NS(=O)(=O)OC[C@@H]1C[C@@H](n2ccc3c(N[C@H]4CCc5ccccc54)ncnc32)C[C@@H]1O", "TESTED_ON": "3E", "ANSWER_LABEL": "Not fulfilled"}
{"MOLECULE": "Nc1ccn([C@@H]2O[C@H](CO)[C@@H](O)C2(F)F)c(=O)n1", "TESTED_ON": "3E", "ANSWER_LABEL": "Fulfilled"}
{"MOLECULE": "Cc1ncc(Cl)cc1NCc1ccc(C(=O)N[C@@H](CC2CCCC2)C(=O)NC2CC2)s1", "TESTED_ON": "3E", "ANSWER_LABEL": "Not fulfilled"}
{"MOLECULE": "COc1cc(Nc2c(C#N)cnc3cc(OCCCN4CCN(C)CC4)c(OC)cc23)c(Cl)cc1Cl", "TESTED_ON": "3E", "ANSWER_LABEL": "Not fulfilled"}
{"MOLECULE": "CN(C)C/C=C/C(=O)Nc1ccc(C(=O)N2CCC[C@@H](Nc3ncc(Cl)c(-c4c[nH]c5ccccc45)n3)C2)cc1", "TESTED_ON": "3E", "ANSWER_LABEL": "Fulfilled"}
{"MOLECULE": "Cn1ncnc1[C@H]1c2n[nH]c(=O)c3cc(F)cc(c23)N[C@@H]1c1ccc(F)cc1", "TESTED_ON": "3E", "ANSWER_LABEL": "Fulfilled"}
{"MOLECULE": "CC[C@@]1(O)C(=O)OCc2c1cc1n(c2=O)Cc2cc3ccccc3nc2-1", "TESTED_ON": "3E", "ANSWER_LABEL": "Fulfilled"}
{"MOLECULE": "O=C(c1cc(Cc2n[nH]c(=O)c3ccccc23)ccc1F)N1CCN(C(=O)C2CC2)CC1", "TESTED_ON": "3E", "ANSWER_LABEL": "Not fulfilled"}
{"MOLECULE": "Cc1ccc(NC(=O)c2ccc(CN3CCN(C)CC3)cc2)cc1Nc1nccc(-c2cccnc2)n1", "TESTED_ON": "3E", "ANSWER_LABEL": "Not fulfilled"}
{"MOLECULE": "FC(F)(F)c1ccc(/C=C/c2nc(COc3ccc(CCCCn4ccnn4)cc3)co2)cc1", "TESTED_ON": "3E", "ANSWER_LABEL": "Not fulfilled"}
{"MOLECULE": "O=C(Nc1cnn2ccc(N3CCC[C@@H]3c3cc(F)ccc3F)nc12)N1CC[C@H](O)C1", "TESTED_ON": "3E", "ANSWER_LABEL": "Not fulfilled"}
{"MOLECULE": "CC(=O)c1c(C)c2cnc(Nc3ccc(N4CCNCC4)cn3)nc2n(C2CCCC2)c1=O", "TESTED_ON": "3E", "ANSWER_LABEL": "Fulfilled"}
{"MOLECULE": "CC[C@H](Nc1nc(NCc2cnc(C)cc2C)c2ncn(C(C)C)c2n1)[C@@H](C)O", "TESTED_ON": "3E", "ANSWER_LABEL": "Fulfilled"}
{"MOLECULE": "CN(C)CCNC(=O)c1cccn2c(=O)c3cc4ccccc4cc3nc12", "TESTED_ON": "3E", "ANSWER_LABEL": "Not fulfilled"}
{"MOLECULE": "C[C@@H]1CN(CC(=O)Nc2ccc3c(c2)Cc2cccc(-c4cc(=O)cc(N5CCOCC5)o4)c2S3)C[C@H](C)O1", "TESTED_ON": "3E", "ANSWER_LABEL": "Not fulfilled"}
{"MOLECULE": "CN1CCN(c2ccc(C(=O)Nc3n[nH]c4ccc(Cc5cc(F)cc(F)c5)cc34)c(NC3CCOCC3)c2)CC1", "TESTED_ON": "3E", "ANSWER_LABEL": "Not fulfilled"}
{"MOLECULE": "CO[C@@H]1[C@H](N(C)C(=O)c2ccccc2)C[C@H]2O[C@]1(C)n1c3ccccc3c3c4c(c5c6ccccc6n2c5c31)C(=O)NC4", "TESTED_ON": "3E", "ANSWER_LABEL": "Fulfilled"}
{"MOLECULE": "CC[C@]1(O)C[C@@H]2CN(CCc3c([nH]c4ccccc34)[C@@](C(=O)OC)(c3cc4c(cc3OC)N(C)[C@H]3[C@@](O)(C(=O)OC)[C@H](OC(C)=O)[C@]5(CC)C=CCN6CC[C@]43[C@@H]65)C2)C1", "TESTED_ON": "3E", "ANSWER_LABEL": "Fulfilled"}
